system: ATP; assay: switch fluorescence ratio, 500 uM ATP over buffer (Cy3 cluster intensity, sum of 5 cycles each) (fold (ratio)); higher = stronger signal-on switching upon ATP binding; sequences stand for … in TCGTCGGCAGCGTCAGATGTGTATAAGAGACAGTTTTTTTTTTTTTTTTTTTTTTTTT…TC; details: aptamer strand: ATP DNA aptamer (quencher-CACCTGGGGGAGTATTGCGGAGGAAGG + anchor), 100 nM annealed; ATP concentration: 500 uM;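 further: ATP exposure 15 min at 22 °C before imaging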
Provide the reported switch fluorescence ratio of each item.
One number for each entry.

Some solved cases for reference:
| Sequence Entry | Target Entity | Value |
| --- | --- | --- |
| GTAGCAGCAG | ATP | 1.17 |
| GGGCTTTAAG | ATP | 1.03 |
| CAAATTGCAG | ATP | 0.967 |

Kindly review the next sequence as well.
Input: Which measured switch fluorescence ratio value corresponds to CATTAATAGT ?
Output: 0.98

* * *

tested on: ATP; assay: switch fluorescence ratio, 500 uM ATP over buffer (Cy3 cluster intensity, sum of 5 cycles each) (fold (ratio)); higher = stronger signal-on switching upon ATP binding; sequences stand for … in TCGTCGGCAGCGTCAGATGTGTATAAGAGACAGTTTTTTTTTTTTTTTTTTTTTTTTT…TC; settings: aptamer strand: ATP DNA aptamer (quencher-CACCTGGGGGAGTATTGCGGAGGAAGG + anchor), 100 nM annealed; ATP concentration: 500 uM;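 further: ATP exposure 15 min at 22 °C before imaging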
Readout Kind: switch fluorescence ratio

Some solved entries appear below for comparison.
| Sequence Entry | Target Entity | switch fluorescence ratio |
| --- | --- | --- |
| CTAAGGGGGA | ATP | 1 |
| TTATGACGGG | ATP | 1 |

# batch size: 2; output switch fluorescence ratio per entry
1. GATGTTGCTT
2. AACAATTCTG

Output:
1.02
1.01

Please give switch fluorescence ratio, item by item, for the list that follows.
1. GCTAGGGGGT
2. GTAATGTGGG
3. GGGGGTTCGT
4. TTTTATGCGG
5. TGGATTTGGA
6. ATTAGTCCGA

Output:
1. 1.02
2. 0.972
3. 0.98
4. 0.974
5. 0.999
6. 0.992

Batch request: switch fluorescence ratio for each of the following sequences.
1. TGGGAAAGGT
2. TTATTAGAAG
3. ATCTATGCTT
4. TAGCGCTGGT
5. AAGGGATTGA
6. TGGTGGGGTC

Output:
0.994
0.978
0.989
1.01
1.01
1

Okay, here is my list. What is switch fluorescence ratio for each of these?
1. GTTGCAGGAA
2. CCAAATCAGA
3. GGACTTGGTC
4. TAGGCTTTAG
5. AAGCGGTTCG
6. GGTTGGAAAG
7. GCGGGAGGGG
8. TTGGGAAAGT

Output:
1: 0.992; 2: 0.986; 3: 0.972; 4: 1.01; 5: 0.989; 6: 0.992; 7: 0.99; 8: 0.995

* * *

system: ATP; test: switch fluorescence ratio, 500 uM ATP over buffer (Cy3 cluster intensity, sum of 5 cycles each) (fold (ratio)); higher = stronger signal-on switching upon ATP binding; sequences stand for … in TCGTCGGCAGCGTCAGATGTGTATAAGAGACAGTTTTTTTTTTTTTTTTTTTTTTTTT…TC; details: aptamer strand: ATP DNA aptamer (quencher-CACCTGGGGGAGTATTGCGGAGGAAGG + anchor), 100 nM annealed; ATP concentration: 500 uM;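 further: ATP exposure 15 min at 22 °C before imaging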
Record 1 whenever switch fluorescence ratio is at 1 or higher; record 0 when lower.

Observe how each entry below is paired with its result.
| Sequence Entry | Label Class |
| --- | --- |
| CCTGAGGTTA | 1 |
| ACGGGTTGGC | 1 |
| AGGCGGGCAG | 1 |
| ATCAGCGATC | 1 |
| CGCAAATCAA | 1 |
| TGCTAGGGGT | 1 |
| GAATTAGCAC | 1 |
| ACCCAGGGCG | 1 |
| GCAGGTCAAT | 1 |
| AATATACGT | 1 |

Input: Answer whether switch fluorescence ratio of TGCGGGAGTG is greater than or equal to 1.
Output: 0

Input: Consider next the sequence GGATAAGGAA in the same way.
Output: 0

* * *

tested on: ATP; assay: switch fluorescence ratio, 500 uM ATP over buffer (Cy3 cluster intensity, sum of 5 cycles each) (fold (ratio)); higher = stronger signal-on switching upon ATP binding; sequences stand for … in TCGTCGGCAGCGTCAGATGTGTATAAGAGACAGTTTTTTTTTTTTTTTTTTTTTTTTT…TC; conditions: aptamer strand: ATP DNA aptamer (quencher-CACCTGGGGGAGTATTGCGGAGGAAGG + anchor), 100 nM annealed; ATP concentration: 500 uM;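 further: ATP exposure 15 min at 22 °C before imaging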
Readout Kind: switch fluorescence ratio
One number for each entry.

Example entries and their recorded answers appear below.
| Sequence Entry | switch fluorescence ratio |
| --- | --- |
| CTTGATTAGG | 0.998 |
| CCAGAGGGGG | 0.985 |
| TAGAGATCTA | 1.01 |
| GGTACTCTTT | 1 |
| CTGCATGGTT | 1.01 |

Go through the items and report each one's switch fluorescence ratio.
1. GTTTGTTCGC
2. TAAAGGCGGT
3. GGTGCCTGTT

Output:
1. 0.997
2. 0.983
3. 1

* * *

system: ATP; experiment: switch fluorescence ratio, 500 uM ATP over buffer (Cy3 cluster intensity, sum of 5 cycles each) (fold (ratio)); higher = stronger signal-on switching upon ATP binding; sequences stand for … in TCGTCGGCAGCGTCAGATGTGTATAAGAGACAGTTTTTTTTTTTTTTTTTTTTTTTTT…TC; details: aptamer strand: ATP DNA aptamer (quencher-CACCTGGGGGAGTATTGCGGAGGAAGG + anchor), 100 nM annealed; ATP concentration: 500 uM;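 further: ATP exposure 15 min at 22 °C before imaging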
Record form. Attribute: switch fluorescence ratio. Fill in for each entry.
Give bare numbers.

| Sequence Entry | Target Entity | Value |
| --- | --- | --- |
| TTTTTGATTA | ATP | 0.986 |
| AGAACTGGTT | ATP | 0.961 |

Input: switch fluorescence ratio for GTTTTGCATA ?
Output: 1.01

* * *

tested on: ATP; assay: switch fluorescence ratio, 500 uM ATP over buffer (Cy3 cluster intensity, sum of 5 cycles each) (fold (ratio)); higher = stronger signal-on switching upon ATP binding; sequences stand for … in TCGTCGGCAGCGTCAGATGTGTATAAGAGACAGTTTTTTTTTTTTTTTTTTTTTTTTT…TC; details: aptamer strand: ATP DNA aptamer (quencher-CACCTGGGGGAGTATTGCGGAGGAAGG + anchor), 100 nM annealed; ATP concentration: 500 uM;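 further: ATP exposure 15 min at 22 °C before imaging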
Hi there, I'd appreciate the recorded switch fluorescence ratio for every entry that follows.
One number for each entry.

The cases that follow already have their switch fluorescence ratio on record.
| Sequence Entry | switch fluorescence ratio |
| --- | --- |
| AGTTTTGGTC | 1 |
| AATTAAATA | 0.979 |
| GCTTATGTAC | 1.16 |
| TAGGTTGTAT | 0.978 |
| GTGGGATGGA | 0.978 |
| TACGTCACGA | 1.42 |
| TGGTGAGGTG | 1.02 |
| CTATGATTGT | 0.977 |
| TTGGTACCGC | 1 |
| AGGTCGGGGA | 1.05 |

Hi! Can you tell me switch fluorescence ratio for each of these sequences?
1. CTTTTTGCAT
2. TTTCGTGGTT
3. AACGTTTGTT
4. AATATCTTGC

Output:
1: 1.02; 2: 0.937; 3: 1.14; 4: 1.05

* * *

Answer each item with its documented switch fluorescence ratio.
system: ATP; assay: switch fluorescence ratio, 500 uM ATP over buffer (Cy3 cluster intensity, sum of 5 cycles each) (fold (ratio)); higher = stronger signal-on switching upon ATP binding; sequences stand for … in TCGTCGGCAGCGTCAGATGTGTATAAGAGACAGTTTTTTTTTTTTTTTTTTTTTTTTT…TC; conditions: aptamer strand: ATP DNA aptamer (quencher-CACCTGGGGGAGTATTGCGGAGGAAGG + anchor), 100 nM annealed; ATP concentration: 500 uM;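 further: ATP exposure 15 min at 22 °C before imaging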
Numbers only.

Example cases with answers are listed next.
| Sequence Entry | switch fluorescence ratio |
| --- | --- |
| TCAGGGATGG | 0.984 |
| TCTAAGGGAG | 0.987 |
| CGGCGATTTA | 1 |
| GATTTATTCG | 0.983 |

Hi! Can you tell me switch fluorescence ratio for each of these sequences?
1. AATATTTGAA
2. TAGAGCATTG
3. AAAGTTCGGG
4. TATTTTACGT
5. TCGTAGGCCT

Output:
[1.02, 1, 0.982, 1.01, 0.981]

* * *

Consider the following sequences; for each one, report its switch fluorescence ratio.
system: ATP; assay: switch fluorescence ratio, 500 uM ATP over buffer (Cy3 cluster intensity, sum of 5 cycles each) (fold (ratio)); higher = stronger signal-on switching upon ATP binding; sequences stand for … in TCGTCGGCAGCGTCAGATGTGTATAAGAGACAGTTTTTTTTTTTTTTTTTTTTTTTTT…TC; conditions: aptamer strand: ATP DNA aptamer (quencher-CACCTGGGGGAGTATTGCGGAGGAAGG + anchor), 100 nM annealed; ATP concentration: 500 uM;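 further: ATP exposure 15 min at 22 °C before imaging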
Answers are plain numbers.

Consider the worked cases shown below.
| Sequence Entry | switch fluorescence ratio |
| --- | --- |
| CAAACGGGGT | 1.01 |
| GATTGCATGC | 1.03 |
| GACCTGAGCA | 1.11 |

State the recorded switch fluorescence ratio for every item in the following list.
1. TTGACGAAAT
2. TCAGGGAGTA
3. TCATTTCGGG
4. AATGTAGTTG
5. GTTAGCGGGG
6. CTGCAGGGGG

Output:
1: 1.41; 2: 1.04; 3: 0.991; 4: 1.02; 5: 0.982; 6: 1.05

Every entry's value here was drawn from the supplement of paper PMC10126150.
